# Assay method text: yeast display, Sf9 membrane polyspecificity reagent, FACS + sequencing; frameworks hold sequencing errors
Experimental endpoint: polyreactivity (PSR sort gate)

Solved entries:
Record sequence | Result
QVQLVESGGGLVQAGGSLRLSCAASGSTFYNYAMGWYRQAPGKERELVAAITSSGGSTYYADSVKGRFTISRDNAKNTVYLQMNSLKPEDTAVYYCNADDGYGQVHSISTYEMDYWGQGTQVTVSS | low polyreactivity
QVQLVESGGGLVQAGGSLRLSCAASGRTFTKYAKGWYRQAPGKERELVAAISNSGGSTFYADSVKGRFTISRDNAKNTVYLQMNSLKPEDTAVYYCAVDLGDTQYVPFDYWGQGTQVTVSS | low polyreactivity
QLQLVESGGGLVQAGGSLRLSCAASGSIFDVYTMGWYRQAPGKERELVAAINTCGGSTYYADSVKGRFTISRDNAKNTVYLQMNSLKPEDTAVYYCAASVYHYGPLYYWGQGTQVTVSS | low polyreactivity
QVQLVESGGGLVQAGGSLRLSCDASGSTFIYYTMGWYRQAPGKERELVAAINGGGGSTYYADSVKGRFTISRDNAKNTVYLQMNSLKPEDTAVYYCATDPWHRAWGYGWGYNYWGQGTQVTVSS | low polyreactivity

input: Please look up its polyreactivity (PSR sort gate): QVQLVESGGGLLQAGGSLRLSCAASGSIFNKYAMGWYRQATGKEREFVAAITQGGGRTYYADSEKVRFTISRDNAKNTDYLQMNILKPEDTAVYYCNYNFNYPYYRYGYWGQGTQVTVSS
output: high polyreactivity

input: What value of polyreactivity (PSR sort gate) has been recorded for this entry: QVQLVESGGGLVQAGGSLRLSCAASGYTFSFNAMGWYRQAPGKEREFVAAIDFGGAGTYYADSVKGRFTISRDTAKKTVYLQMNSLKPEDTAVYYCNARDGVTTEFDYWGQGTQVTVAS
output: low polyreactivity

input: Entry under review: QVQLVESGGGLVQAGGSLRLSCAASGRTFGSNAMGWYRQAPGKERELVAAISRVGSTYYADSVNGRFTISRDNAMNTVYLQMNSLKPEDTAVYYCPYDYWGQGTQVTVSS . Reported polyreactivity (PSR sort gate)?
output: low polyreactivity

input: What value of polyreactivity (PSR sort gate) has been recorded for this entry: QVQLVESGGGLVQAGGSLRLSCAASGRIFRAYTMGWYRPAPGKERELVAAISTRSGRTYYADSVKGRFTISRDKEKNTVYLQMNSLKPEDTAVYYCAADRSGSAWYGYWGQGTQVTVSS
output: high polyreactivity

input: For QVQLVESGGGLVQAGGSLRLSCAASGRIFIGNAMGWYRQAPGKERELVAAISKRGGSTYYADSVKGRFTISRDNAKNTVYLQMNSLKPVDTAVYYCAVDGYVGVADYEYDNWGQGTQVTVSS , what is its reported polyreactivity (PSR sort gate)?
output: low polyreactivity

input: Given the sequence QVQLVESGGGLVQAGGSLRLICAASGRTLGGNAMGWYRQAPGKERELVAAITNSASTYADSVKGRFTISRDNAKNTVYLQMNSLKPEDTAVYYCNAPDPSDQHGDYWGQGTQVTVSS , what is its reported polyreactivity (PSR sort gate)?
output: low polyreactivity

input: polyreactivity (PSR sort gate) lookup needed for QVQLVESGGGLVQAGGSLRLSCAASGSTFLYYAMGWYRPAPGKEREFVASISGSGGSTNYADSVKGRFTISRDNAKTTVYLQLNSLKPEDTAVYYCAAGYGGWAWNHVSYGGDYWGQGTQVTVSS , thanks.
output: low polyreactivity

* * *

# Assay method text: yeast display, Sf9 membrane polyspecificity reagent, FACS + sequencing; frameworks hold sequencing errors
Experimental endpoint: polyreactivity (PSR sort gate)

Would you please look over these solved cases?
Record sequence | polyreactivity (PSR sort gate)
QVQLVESGGGLVQAGGSLRLSCAASGSTFSSYAMGWYRQAPGKDRELVAAISSRGGRTYYADSVKGRFTISRDNAKNTVYLQMNSLKPEDTAVYYCNAPTSALRQGKDYGYWGQGTQVTVSS | high polyreactivity
QVHLVESGGGLVQAGGSLRLSCAASGFIFWGYAMGWYRPAPVHERELVAAISSDGDTYYADSVKGRFTISLDNAKNTVYLQMNCRKPEESAVYYCNADLYGGGDNSVISGLNGEYEYWGQGTQVTVSS | low polyreactivity
QVQLVESGGGLVQAGGSLRLSFAASGSTFSRNTMGWYRQAPGKERELVAAISKSGGRTYYADSVKGRFTISRDNAKNTVYLQINSLKPEDSAVYYCNAAVYAYASDYWGQGTQVTVSS | high polyreactivity
QVQRVESGGGLVQAGGSLRLSFAAAGGILYPYAMGWYRQAPGKERELVAAITSSGSTYYADSVKGRFTISRDNAKITVYLQMNSLNPEDHAVYYCAITLPTRNKLRSGREYDYWGQGTQVTVSS | low polyreactivity
QVQLVESAGGLVHAGGSLRLSCAASGNIFRWYAMGWYRQAPGKDRELVAAISSGGRTNYADSVKGRFTISRDNALNSVFLQMNSLKPEDTAVFYWYIVAGVTGRFYFWGQGTQVTVSS | low polyreactivity
QVQLVESGAGLVQAGGRLRLSCAASGSTFGYYAMGLYTQAPGTERELVAVITTRVGSTYYADSVKGRFTISRDNAKNTVYLQMNSLKPEDTAVYYCNASGRTRSYSGSFSKHYYWGQGTKVTVSS | high polyreactivity
QVQLVESGGGLVQAGGSLRLTCAASGFTFGTYAMGWYRQAPGKERELVAAITWSGGSTYYADSVKGRFTISRDNAKNTVYLQMNSLKPEDTAVYYCAAESADYNDGDYWGQGTQVTVSS | low polyreactivity
QVQLVESGGGLVQAGGSLGLSCAASGRIFGVYAMGWYRQAPGTERELVAAIWSGGSTYYADSVKGRFTISRDNAKNTVYLQMNSLKPEDTAVYYCAADDAYSHRSLYSHNDYWGQGTQVTVSS | low polyreactivity

input: Which polyreactivity (PSR sort gate) is listed for QVQLVESGGGLDQAGGSLRLSCAASGSTLPVYALGWNRQAPGKERELVAAITDSGGNTYYADSVKGRFTISRDNAKNTVYLQMNSLKPEDTAVYYCNADAQSTSGYGYYAPYWMDYWGQGTQVTVSS ?
output: low polyreactivity

input: What measured polyreactivity (PSR sort gate) goes with QVQLVESGGGLVQAGGSLRLSCAASGSTFVSNAMGWDRQAPGQEREVVAALSSGGSPYYADSVKGRFTISRDNAKNTVYLQMNRLKPEDTAVYYCNKRRGRKWPGNYSVVKLLMGYWGQGTQVTVSS ?
output: low polyreactivity

input: Look up polyreactivity (PSR sort gate): QVQLVESGGGLVQAGGSLRLSCAASGSTFSSYVMGWDRQARGKERELVAAISSIGGSTYYADSVKGRFTISRDNAKNTVYLQMNSLKPEDTAVYYCAAEPPGSTYEGGYWGQGTQVTVSS
output: low polyreactivity

* * *

# Assay method text: yeast display, Sf9 membrane polyspecificity reagent, FACS + sequencing; frameworks hold sequencing errors
Experimental endpoint: polyreactivity (PSR sort gate)

Some solved entries appear below for comparison.
Record sequence | Result
QVQLVESGGGLVQAGGSLRLSCAASGIILYRYAMGWYRQAPGKERELVAAISRRGGSTYYADSVKGRFTISRDNAKNTVYLQMNSLKPEDTAVYYCATRSTFYSRWGEVYTYYYWGQGTQVTVSS | high polyreactivity
QVQLVESGGGLVQAGGSLRLSCAASGFTFWQYDMGWYRQAPGKERELVAAITSSGSRTYYADSVKGRFTISRDNAKNTVYLQMNSLKPEDTAVYYCNTYLRYWVSYSYDYWGQGTQVTVSS | high polyreactivity
QVQLVESGGGLVQAGGSLRLSCAPSGRIIRPYAKGWYIQAPGKERELVAAISVSGVITYYADSVKGRFTISRDNAKNTVYLQMNSLKPEDTAVYYCATDYTRRRWGRLYDYWGQGTQVTVSS | low polyreactivity
QVQLVESGGGLVQAGGSLRLSCAASGRIIFHNAMGWYRQAPGKERELVASITSGDGTYYSDSVKGRFTISRDNAKNTVYLQMNSMKPEDTAVYYCAAEPGSIAYYYNRVGLYYWGQGTQVTVSS | low polyreactivity

Shifting focus to the sequence that follows.
input: Could you tell me which polyreactivity (PSR sort gate) is on file for QVQLVESGGGLVQAGGSLRLSCAASGRIFRYYAMGWYRQAPGKERELVAAISTSGDTTYYADSVKGRFTISRDNAKNTVYLQMNSLKPEDTAVYYCAKPIAPARNAYPAYDYWGQGTQVTVSS ?
output: high polyreactivity

* * *

# Assay method text: yeast display, Sf9 membrane polyspecificity reagent, FACS + sequencing; frameworks hold sequencing errors
Experimental endpoint: polyreactivity (PSR sort gate)

Record sequence | polyreactivity (PSR sort gate)
QVQIVESGGRIVQAGGSLRLSCAASGSTFGWYTMGWYRQSPGKESELVATISWRGGTTYYADSVKGRFTISRDNAKNTVYLQMNSLKPEDTAVYYCAARRYRASSRGYGYWGQGTQVTVSS | high polyreactivity
QVQLVESGGGLVQAGGSLRLSCAASGSIFYIYAMGWYRQAPGKERELVAAISWSGSSTYYADSVKGRFTISRDNAKHTVYLQMNSLKPEDTAVYYCAADTGYGVRYYYWGQGTQVTVSS | high polyreactivity
QVQLVESGGGLVQAGGSLRLSCAASASIYPYAMGWYRQAPGKERELVAAITRSGASTYYADSVKGRFTISRDNAKNTVYLQMNSMKPEDTAVYYCAAYALRGVRYPYRVDFYYWGQGTQVTVSS | high polyreactivity
QVQLVESGGGLVPAGGSLRLSCAASGITIGRNTMGWYRQAPGKERELVAAIDSGGNTYADSVKGRFTISRDNAKNTVYLQMNSLKPEDTAVYYCAVDGGEFSSYGYWGQGTQVTVSP | low polyreactivity
QVQLVESGGGLVQAGGSLRLSCAASGSIFYVYAMGWYRQAPGKVRELVATISSSAGSTYYADSVKGRFTISRDNAKNTVYLQMNSLKPEDTAVYYCIADSFLSWVYRYVYYGSAYWGQGSQVTVSS | low polyreactivity

As a next step, examine the sequence that follows.
input: Item under review: QVQLVESGGGLVEAGGSLRLTCAASGIIFYQYAMGWYRQAPGKERELVAAISSRGGSTYYADSVKGRFTISRDNAKNTVYLQMNSLKPEDTAVYYCAAGSTRSTDGYWGQGTQVTVSS . Reported polyreactivity (PSR sort gate)?
output: high polyreactivity
